protocol.details: Mouse pharmacokinetics (oral gavage / intravenous)
Assay type: in vivo, mice
condition.info: mouse, plasma, po, 30 mg/kg, mouse; read-out: plasma half-life following oral administration
assay.endpoint: half-life

Per the records, this compound ( `O=C1NCC2(CCCCC2)n2c1cc1cnc(Nc3ccc(N4CCC(N5CCOCC5)CC4)cn3)nc12` ) has half-life equal to 180 to 300 min

Per the records, this compound ( `CN1CCN(c2ccc(Nc3ncc4cc5n(c4n3)C3(CCCCC3)CNC5=O)nc2)CC1` ) has half-life equal to 180 to 300 min

We now examine a further compound.
Per the records, this compound ( `CC(C)N1CCN(c2ccc(Nc3ncc4cc5n(c4n3)C3(CCCCC3)CNC5=O)nc2)CC1` ) has half-life equal to 180 to 300 min

---

target: CDK4/CyclinD1 (Homo sapiens (Human), UniProt P11802)
Sequence (P11802 whole entry, species assumed): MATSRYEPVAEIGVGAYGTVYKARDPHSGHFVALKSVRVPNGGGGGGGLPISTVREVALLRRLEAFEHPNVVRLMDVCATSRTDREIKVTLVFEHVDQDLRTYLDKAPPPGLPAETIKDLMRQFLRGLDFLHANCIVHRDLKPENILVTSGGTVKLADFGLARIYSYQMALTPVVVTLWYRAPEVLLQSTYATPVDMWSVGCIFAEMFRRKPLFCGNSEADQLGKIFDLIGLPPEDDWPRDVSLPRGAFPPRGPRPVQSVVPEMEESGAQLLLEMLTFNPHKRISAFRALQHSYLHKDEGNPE
Sequence (P24385 whole entry partner, species assumed): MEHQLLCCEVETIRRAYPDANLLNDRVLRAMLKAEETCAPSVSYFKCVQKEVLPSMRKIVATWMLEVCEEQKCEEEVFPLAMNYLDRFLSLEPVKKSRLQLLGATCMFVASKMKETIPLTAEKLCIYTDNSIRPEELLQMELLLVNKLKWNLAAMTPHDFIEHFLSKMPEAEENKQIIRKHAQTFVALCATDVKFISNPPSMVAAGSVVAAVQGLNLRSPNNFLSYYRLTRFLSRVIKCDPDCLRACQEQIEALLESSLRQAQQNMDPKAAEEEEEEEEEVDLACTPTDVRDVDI
protocol.details: CDK4/CyclinD1 kinase assay (Nanosyn, Caliper microfluidic)
Type: biochemical
condition.info: Table 2; read-out: CDK4/CycD1 IC50
assay.endpoint: pIC50
# pIC50 = -log10(concentration in molar units)

pIC50 value, target or system CDK4/CyclinD1 (Homo sapiens (Human), UniProt P11802), for CCN(CC)C1CCN(C2CCN(c3ccc(Nc4ncc5cc6n(c5n4)C4(CCCCC4)CNC6=O)nc3)CC2)C1 (centres unmarked) : 8.92

pIC50 value, target or system CDK4/CyclinD1 (Homo sapiens (Human), UniProt P11802), for `C[C@@H]1CN(c2ccc(Nc3ncc4cc5n(c4n3)C3(CCCCC3)CNC5=O)nc2)CCN1C[C@@H](C)O` : 9.15

pIC50 value, target or system CDK4/CyclinD1 (Homo sapiens (Human), UniProt P11802), for `O=C1NCC2(CCCCC2)n2c1cc1cnc(Nc3ccc(N4CCC(N5CCC(C(F)(F)F)CC5)CC4)cn3)nc12` : 9.05

Next:
pIC50 value, target or system CDK4/CyclinD1 (Homo sapiens (Human), UniProt P11802), for CC1CN(c2ccc(Nc3ncc4cc5n(c4n3)C3(CCCCC3)CNC5=O)nc2)C[C@@H](C)N1CC1CC1 (some centres unmarked) : 8.05

pIC50 value, target or system CDK4/CyclinD1 (Homo sapiens (Human), UniProt P11802), for `CC(C)N1CCN(c2ccc(Nc3ncc4cc5n(c4n3)C3(CCCC3)CNC5=O)nc2)CC1` : 8.22

pIC50 value, target or system CDK4/CyclinD1 (Homo sapiens (Human), UniProt P11802), for `CC(C)C[C@@H]1CNC(=O)c2cc3cnc(Nc4ccc(N5CCNCC5)cn4)nc3n21` : 7.73

pIC50 value, target or system CDK4/CyclinD1 (Homo sapiens (Human), UniProt P11802), for `CN1CCN(c2ccc(Nc3ncc4cc5n(c4n3)C3(CCCCC3)CNC5=O)nc2)CC1(C)C` : 9.05

pIC50 value, target or system CDK4/CyclinD1 (Homo sapiens (Human), UniProt P11802), for CC1CN(c2ccc(Nc3ncc4cc5n(c4n3)C3(CCCC3)CNC5=O)nc2)CC(C)N1CCC(C)(C)C (centres unmarked) : 9.10

---

protocol.details: Mouse pharmacokinetics (oral gavage / intravenous)
Assay type: in vivo, mice
condition.info: mouse
assay.endpoint: F (%)
Could you give me the number in %? Just the number is fine.

Per the records, this molecule ( O=C1NCC2(CCCCC2)n2c1cc1cnc(Nc3ccc(N4CCC(N5CCOCC5)CC4)cn3)nc12 [Compound U] ) has F equal to 67

Per the records, this molecule ( CN1CCN(c2ccc(Nc3ncc4cc5n(c4n3)C3(CCCCC3)CNC5=O)nc2)CC1 [Compound T] ) has F equal to 80

Per the records, this molecule ( O=C1NCC2(CCCCC2)n2c1cc1cnc(Nc3ccc(N4CCNCC4)cn3)nc12 [Compound Q] ) has F equal to 2

Next:
Per the records, this molecule ( CC(C)N1CCN(c2ccc(Nc3ncc4cc5n(c4n3)C3(CCCCC3)CNC5=O)nc2)CC1 [Compound GG] ) has F equal to 52
